- target_of_assay: SARS-CoV-2 full length spike protein (wild type), conjugated to beads (SARS-CoV-2, UniProt P0DTC2 14-1208)
measured_metric: binding signal, bead assay
Dear colleague, please send the value followed by its unit.

Record antibody 365 (antibody, V domains shown) VH: QVQLVESGGGVVQPGRSLRLSCAASGFNLSSYAMHWVRQASGKGLEWVSLISYDGSIKYYTDSVKGRFTVSGDNSKNTLFLQMNSLRPDDSALYYCVRGGVSGPNSFDMWGQGTTVTVSS VL: DVVMTQSPLSLPVTLGQPASISCRSSQSLVYSDGNTYVNWFQQRPGQSPRRLIYKVSIRASGVPDRFSGSGSGTDFALKISRVEAEDVGVYYCMQGTHWPVTFGQGTKVEIK , field binding signal, bead assay: 533 fold over isotype
